- SYSTEM TESTED: recombinant human plasminogen activator inhibitor-1 (PAI-1) (Homo sapiens, UniProt P05121)
- Construct: purchased Molecular Innovations, Royal Oak, Mich
- Sequence (P05121 24-402): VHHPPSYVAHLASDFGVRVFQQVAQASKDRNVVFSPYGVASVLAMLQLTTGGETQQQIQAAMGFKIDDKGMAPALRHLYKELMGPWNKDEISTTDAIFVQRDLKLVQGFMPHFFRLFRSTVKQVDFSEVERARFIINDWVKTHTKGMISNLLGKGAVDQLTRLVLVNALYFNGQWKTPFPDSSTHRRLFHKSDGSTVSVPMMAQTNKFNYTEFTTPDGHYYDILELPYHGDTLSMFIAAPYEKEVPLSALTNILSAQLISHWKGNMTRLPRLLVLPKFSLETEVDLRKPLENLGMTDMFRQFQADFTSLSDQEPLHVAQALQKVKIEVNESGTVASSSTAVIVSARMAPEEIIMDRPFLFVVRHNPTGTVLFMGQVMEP
- ASSAY INFO: Primary screen for the PAI-1 inhibition (chromogenic tPA activity, Spectrozyme-tPA)
- Type: biochemical
- MEASUREMENT CONTEXT: compound at 100 μM
PROPERTY LABEL: inhibition at 100 µM (%)

O=c1[nH]c(=O)n(Cc2ccc(OCc3cccc(Cl)c3)c(OCc3cccc(Cl)c3)c2)o1; 91
C#CCn1cc(Cn2oc(=O)[nH]c2=O)c2cc(OCc3cc(C(F)(F)F)cc(C(F)(F)F)c3)ccc21; 91
Cc1cccc(COc2ccc3c(c2)c(Cn2oc(=O)[nH]c2=O)cn3Cc2ccccc2)c1; 59
O=c1[nH]c(=O)n(Cc2cccc(C#CCOc3cc(Cl)cc(Cl)c3)c2)o1; 93
O=c1[nH]c(=O)n(Cc2ccc(OCc3cccc(Br)c3)c(OCc3cccc(Br)c3)c2)o1; 88

(I) O=c1[nH]c(=O)n(Cc2cccc(-c3cccc(OCc4ccccc4Cl)c3)c2)o1
(II) C=CCn1cc(Cn2oc(=O)[nH]c2=O)c2cc(OCc3ccc(Br)cc3)ccc21
Higher inhibition at 100 µM: I or II ? Respond with the label that goes with your answer.
I
